ASSAYED_TARGET: Acetylcholinesterase (Rattus norvegicus)
Sequence (P37136 whole entry): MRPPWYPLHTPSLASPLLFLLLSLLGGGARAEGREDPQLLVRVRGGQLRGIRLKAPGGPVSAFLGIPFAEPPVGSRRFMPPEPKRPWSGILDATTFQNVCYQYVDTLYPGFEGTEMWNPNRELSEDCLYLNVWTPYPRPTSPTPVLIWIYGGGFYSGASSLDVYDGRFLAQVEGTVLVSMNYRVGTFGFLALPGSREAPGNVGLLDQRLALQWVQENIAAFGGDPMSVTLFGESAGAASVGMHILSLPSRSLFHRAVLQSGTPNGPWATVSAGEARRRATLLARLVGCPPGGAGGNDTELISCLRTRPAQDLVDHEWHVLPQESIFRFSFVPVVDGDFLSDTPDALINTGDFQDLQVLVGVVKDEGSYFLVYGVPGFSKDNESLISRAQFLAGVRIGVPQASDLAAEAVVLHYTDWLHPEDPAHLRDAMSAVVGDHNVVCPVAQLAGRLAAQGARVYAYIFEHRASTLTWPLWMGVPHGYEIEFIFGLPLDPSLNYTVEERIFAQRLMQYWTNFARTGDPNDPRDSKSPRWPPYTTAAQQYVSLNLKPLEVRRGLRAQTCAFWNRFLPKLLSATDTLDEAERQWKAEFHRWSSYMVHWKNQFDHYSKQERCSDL
pIC50: −log10 of the molar value.
# if value of pIC50 reaches 6, tag fulfilled; if it stays below, tag not fulfilled

MOLECULE	DISCRETE_LABEL
CCN(CC)Cc1ccc(-c2cc(=O)c3cc(OC)c(OC)cc3o2)cc1	fulfilled
COc1cc2occ(-c3ccc(CN4CCCC4)cc3)c(=O)c2cc1OC	fulfilled
CCN(CC)Cc1ccc(C2CC(=O)c3cc(OC)c(OC)cc3O2)cc1 (centres undefined)	not fulfilled
COc1cc(O)c(C(=O)/C=C/c2ccc(CN3CCCC3)cc2)cc1OC	fulfilled
COc1cc(O)c(C(=O)/C=C/c2cccc(CN3CCCC3)c2)cc1OC	fulfilled
CCN(CC)Cc1cccc(C2CC(=O)c3cc(OC)c(OC)cc3O2)c1 (centres undefined)	not fulfilled
CCN(C)Cc1ccc(-c2coc3cc(OC)c(OC)cc3c2=O)cc1	fulfilled
COc1cc(O)c(C(=O)/C=C/c2ccc(CN3CCCCC3)cc2)cc1OC	fulfilled
CCN(CC)Cc1ccc(-c2coc3cc(OC)c(OC)cc3c2=O)cc1	fulfilled
COc1cc2occ(-c3cccc(CN4CCCC4)c3)c(=O)c2cc1OC	fulfilled
COc1cc2oc(-c3ccc(CN4CCCCC4)cc3)cc(=O)c2cc1OC	fulfilled
CCN(CC)Cc1ccc(/C=C/C(=O)c2cc(OC)c(OC)cc2O)cc1	fulfilled
COc1cc2c(cc1OC)C(=O)CC(c1ccc(CN3CCCCC3)cc1)O2 (centres undefined)	fulfilled
CCN(C)Cc1ccc(-c2cc(=O)c3cc(OC)c(OC)cc3o2)cc1	fulfilled
CCN(CC)Cc1cccc(/C=C/C(=O)c2cc(OC)c(OC)cc2O)c1	not fulfilled
COc1cc2c(cc1OC)C(=O)CC(c1cccc(CN3CCCC3)c1)O2 (centres undefined)	not fulfilled
COc1cc2oc(-c3ccc(CN4CCCC4)cc3)cc(=O)c2cc1OC	fulfilled
CCN(C)Cc1ccc(/C=C/C(=O)c2cc(OC)c(OC)cc2O)cc1	fulfilled
CCN(C)Cc1ccc(C2CC(=O)c3cc(OC)c(OC)cc3O2)cc1 (centres undefined)	not fulfilled
CCN(CC)Cc1cccc(-c2coc3cc(OC)c(OC)cc3c2=O)c1	fulfilled
COc1cc2occ(-c3ccc(CN4CCCCC4)cc3)c(=O)c2cc1OC	fulfilled
CCN(CC)Cc1cccc(-c2cc(=O)c3cc(OC)c(OC)cc3o2)c1	not fulfilled

###

ASSAYED_TARGET: Butyrylcholinesterase (Rattus norvegicus, UniProt Q9JKC1)
Sequence (Q9JKC1 whole entry): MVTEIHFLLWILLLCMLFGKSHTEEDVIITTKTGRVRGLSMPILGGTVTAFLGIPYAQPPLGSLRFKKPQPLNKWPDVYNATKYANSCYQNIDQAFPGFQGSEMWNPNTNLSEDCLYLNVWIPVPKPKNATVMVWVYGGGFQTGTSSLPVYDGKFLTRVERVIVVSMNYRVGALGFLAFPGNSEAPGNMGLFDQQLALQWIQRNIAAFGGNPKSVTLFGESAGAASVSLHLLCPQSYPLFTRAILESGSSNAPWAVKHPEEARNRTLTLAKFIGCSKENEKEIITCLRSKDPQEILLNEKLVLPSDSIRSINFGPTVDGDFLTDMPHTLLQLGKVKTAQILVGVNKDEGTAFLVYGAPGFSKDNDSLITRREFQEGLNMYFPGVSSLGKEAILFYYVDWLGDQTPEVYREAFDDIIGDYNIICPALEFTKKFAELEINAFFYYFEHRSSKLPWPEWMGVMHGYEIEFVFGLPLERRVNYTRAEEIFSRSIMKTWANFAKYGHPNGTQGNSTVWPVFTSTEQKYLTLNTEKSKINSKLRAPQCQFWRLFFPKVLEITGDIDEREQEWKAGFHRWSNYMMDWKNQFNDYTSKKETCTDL
ASSAY_TEXT: Inhibition of BChE in rat serum after 15 mins by modified Ellman's method
pIC50: −log10 of the molar value.
PROPERTY_LABEL: pIC50

CHEMICAL_STRING	PROPERTY_LABEL	REPORTED_RESULT
CCN(C)Cc1ccc(-c2cc(=O)c3cc(OC)c(OC)cc3o2)cc1	pIC50	< 4.00
CCN(CC)Cc1ccc(/C=C/C(=O)c2cc(OC)c(OC)cc2O)cc1	pIC50	< 4.00
COc1cc2oc(-c3cccc(CN4CCCC4)c3)cc(=O)c2cc1OC	pIC50	< 4.00
CCN(CC)Cc1ccc(-c2coc3cc(OC)c(OC)cc3c2=O)cc1	pIC50	< 4.00
CCN(C)Cc1ccc(-c2coc3cc(OC)c(OC)cc3c2=O)cc1	pIC50	4.21
COc1cc2oc(-c3ccc(CN4CCCC4)cc3)cc(=O)c2cc1OC	pIC50	4.05
CCN(CC)Cc1cccc(-c2cc(=O)c3cc(OC)c(OC)cc3o2)c1	pIC50	< 4.00
CCN(CC)Cc1cccc(/C=C/C(=O)c2cc(OC)c(OC)cc2O)c1	pIC50	< 4.00
CCN(CC)Cc1cccc(-c2coc3cc(OC)c(OC)cc3c2=O)c1	pIC50	< 4.00
COc1cc2occ(-c3ccc(CN4CCCCC4)cc3)c(=O)c2cc1OC	pIC50	< 4.00
COc1cc2oc(-c3ccc(CN4CCCCC4)cc3)cc(=O)c2cc1OC	pIC50	4.12

###

ASSAYED_TARGET: Butyrylcholinesterase (Rattus norvegicus, UniProt Q9JKC1)
ASSAY_TEXT: Inhibition of BChE in rat serum after 15 mins by modified Ellman's method
Listing of entries alongside the reported IC50.
PROPERTY_LABEL: IC50

COMPOUND	ASSAYED_TARGET	REPORTED_RESULT
CCN(C)Cc1ccc(/C=C/C(=O)c2cc(OC)c(OC)cc2O)cc1	Butyrylcholinesterase (Rattus norvegicus, UniProt Q9JKC1)	> 100 µM
COc1cc2occ(-c3ccc(CN4CCCC4)cc3)c(=O)c2cc1OC	Butyrylcholinesterase (Rattus norvegicus, UniProt Q9JKC1)	18.3 µM
COc1cc(O)c(C(=O)/C=C/c2ccc(CN3CCCC3)cc2)cc1OC	Butyrylcholinesterase (Rattus norvegicus, UniProt Q9JKC1)	> 100 µM
COc1cc2occ(-c3cccc(CN4CCCC4)c3)c(=O)c2cc1OC	Butyrylcholinesterase (Rattus norvegicus, UniProt Q9JKC1)	> 100 µM
COc1cc2c(cc1OC)C(=O)CC(c1ccc(CN3CCCCC3)cc1)O2 (stereo not drawn)	Butyrylcholinesterase (Rattus norvegicus, UniProt Q9JKC1)	48 µM
COc1cc2c(cc1OC)C(=O)CC(c1ccc(CN3CCCC3)cc1)O2 (stereo not drawn)	Butyrylcholinesterase (Rattus norvegicus, UniProt Q9JKC1)	68.2 µM
COc1cc(O)c(C(=O)/C=C/c2cccc(CN3CCCC3)c2)cc1OC	Butyrylcholinesterase (Rattus norvegicus, UniProt Q9JKC1)	77.3 µM
CCN(CC)Cc1ccc(-c2cc(=O)c3cc(OC)c(OC)cc3o2)cc1	Butyrylcholinesterase (Rattus norvegicus, UniProt Q9JKC1)	64.6 µM
COc1cc(O)c(C(=O)/C=C/c2ccc(CN3CCCCC3)cc2)cc1OC	Butyrylcholinesterase (Rattus norvegicus, UniProt Q9JKC1)	> 100 µM
COc1cc2c(cc1OC)C(=O)CC(c1cccc(CN3CCCC3)c1)O2 (stereo not drawn)	Butyrylcholinesterase (Rattus norvegicus, UniProt Q9JKC1)	> 100 µM
CCN(CC)Cc1ccc(C2CC(=O)c3cc(OC)c(OC)cc3O2)cc1 (stereo not drawn)	Butyrylcholinesterase (Rattus norvegicus, UniProt Q9JKC1)	> 100 µM
CCN(CC)Cc1cccc(C2CC(=O)c3cc(OC)c(OC)cc3O2)c1 (stereo not drawn)	Butyrylcholinesterase (Rattus norvegicus, UniProt Q9JKC1)	> 100 µM
CCN(C)Cc1ccc(C2CC(=O)c3cc(OC)c(OC)cc3O2)cc1 (stereo not drawn)	Butyrylcholinesterase (Rattus norvegicus, UniProt Q9JKC1)	> 100 µM
